Data provenance: patent EP1586565A1

Target: Human factor Xa (Homo sapiens)
Construct: leads from XII to XIIa to XIa to IXa and to the conversion of X to Xa; purchased Enzyme Research Laboratories, South Bend IN
Sequence (P00742 235-488 limits assumed): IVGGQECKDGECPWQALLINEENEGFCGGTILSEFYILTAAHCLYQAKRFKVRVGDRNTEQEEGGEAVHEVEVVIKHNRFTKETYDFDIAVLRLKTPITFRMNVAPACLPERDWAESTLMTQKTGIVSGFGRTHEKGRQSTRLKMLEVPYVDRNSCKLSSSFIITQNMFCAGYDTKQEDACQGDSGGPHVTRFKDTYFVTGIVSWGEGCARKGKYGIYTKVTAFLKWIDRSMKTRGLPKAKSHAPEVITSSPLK
Sequence (P00742 41-179 limits assumed): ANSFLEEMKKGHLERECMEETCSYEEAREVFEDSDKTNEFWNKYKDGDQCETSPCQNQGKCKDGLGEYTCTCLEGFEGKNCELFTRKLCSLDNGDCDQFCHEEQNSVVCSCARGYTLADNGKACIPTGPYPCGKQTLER
Experiment: Xa Assay
Format: biochemical
Details: % inhibition at 30 µM (cells with % or %@30, bare 0)
Quantity kind: IC50 or % Inhibition Factor Xa (30 µM) (%)
Report the value in % with no unit label.

Example entries begin here.
[[record]]
compound = "N=C(N)c1ccc(CNC(=O)Cn2c(-c3ccccc3)c(Cl)nc(NCc3cc(C(F)(F)F)ccc3F)c2=O)cc1"
quantity_kind = "IC50 or % Inhibition Factor Xa (30 µM)"
measure_unit = "%"
recorded_value = 3

[[record]]
compound = "CC(C)N(C)c1nc(Cl)c(-c2ccccc2)n(CC(=O)NCc2ccc(C(=N)N)cc2)c1=O"
quantity_kind = "IC50 or % Inhibition Factor Xa (30 µM)"
measure_unit = "%"
recorded_value = 0

[[record]]
compound = "COc1ccc(-c2c(Cl)nc(NCc3ccncc3)c(=O)n2CC(=O)NCc2ccc(C(=N)N)cc2)cc1"
quantity_kind = "IC50 or % Inhibition Factor Xa (30 µM)"
measure_unit = "%"
recorded_value = 22

[[record]]
compound = "Cc1c(Cl)nc(NCCc2ccncc2)c(=O)n1CC(=O)NCc1ccc(C(=N)N)cc1"
quantity_kind = "IC50 or % Inhibition Factor Xa (30 µM)"
measure_unit = "%"
recorded_value = 12

[[record]]
compound = "CSCC(C(=O)NCc1ccc(C(=N)N)cc1)n1c(-c2ccccc2)c(Cl)nc(NCCc2ccccc2)c1=O (stereo not shown)"
quantity_kind = "IC50 or % Inhibition Factor Xa (30 µM)"
measure_unit = "%"
recorded_value = 0


Query :: Report IC50 or % Inhibition Factor Xa (30 µM) for COc1ccc(-c2c(Cl)nc(NCCN3CCOCC3)c(=O)n2CC(=O)NCc2ccc(C(=N)N)cc2)cc1 tested on Human factor Xa (Homo sapiens).
Result :: 6

Query :: Report IC50 or % Inhibition Factor Xa (30 µM) for N=C(N)c1ccc(CNC(=O)Cn2c(-c3ccsc3)c(Cl)nc(NC3CCC3)c2=O)cc1 tested on Human factor Xa (Homo sapiens).
Result :: 0

Query :: Report IC50 or % Inhibition Factor Xa (30 µM) for Cc1c(Cl)nc(NCc2ccncc2)c(=O)n1CC(=O)NCc1ccc(C(=N)N)cc1 tested on Human factor Xa (Homo sapiens).
Result :: 0

Query :: Report IC50 or % Inhibition Factor Xa (30 µM) for CC(C)Nc1nc(Cl)c(-c2cc(N)ccc2F)n(CC(=O)NCc2ccc(C(=N)N)cc2F)c1=O tested on Human factor Xa (Homo sapiens).
Result :: 0

Query :: Report IC50 or % Inhibition Factor Xa (30 µM) for N=C(N)c1ccc(CNC(=O)Cn2c(-c3ccccc3)c(Cl)nc(NC3CCCCCC3)c2=O)cc1 [1507-29] tested on Human factor Xa (Homo sapiens).
Result :: 4

Query :: Report IC50 or % Inhibition Factor Xa (30 µM) for N=C(N)c1ccc(CNC(=O)Cn2c(-c3c(Cl)cccc3Cl)c(Cl)nc(NCCc3cccc(Cl)c3)c2=O)cc1 tested on Human factor Xa (Homo sapiens).
Result :: 0

Query :: Report IC50 or % Inhibition Factor Xa (30 µM) for CCc1c(Cl)nc(NCc2ccncc2)c(=O)n1CC(=O)NCc1ccc(C(=N)N)cc1 tested on Human factor Xa (Homo sapiens).
Result :: 0
